Origin of the recorded values: PubChem BioAssay (NCI)

System: CAKI-1 renal
protocol: NCI-60 one-dose screen, 48 h (100 = growth as untreated, 0 = no growth, -100 = all killed)
condition summary: 10 µM unless noted
The panel holds about 83,000 compounds, 20% with a hit somewhere; the sample as a whole holds those more often.
Measured growth accompanies every entry in the list below.
Report the figure in % without appending any unit label.

>>> result("Cc1nn(-c2ccc(Br)cc2)c2nc3[nH]c(=O)[nH]c(=O)c3nc12")
92.2
>>> result("Fc1ccc(Nc2nnc(-c3ccc(Cl)cc3)o2)cc1")
92.8
>>> result("CCc1cccc(CC)c1NC(=O)c1sc2nc3c(cc2c1N)CCCC3")
64.6
>>> result("N#Cc1cnc2cc(OC[C@@H](O)CO)c(NC(=O)CC3CSSC3)cc2c1Nc1ccc(OCc2cccc(F)c2)c(Cl)c1")
62.7
>>> result("CC(C)(C)c1ccc(OCCCCCCCN2CCNCC2)cc1")
44.8

In: Param item = COC(=O)[C@]12CC[C@@H](C)[C@H](C)[C@@H]1C1=CC[C@@H]3[C@@]4(C)CC(=O)[C@H](OC(=O)c5ccco5)[C@@]5(C)COC(=C45)C[C@@]3(C)[C@]1(C)CC2 ; retrieve measured growth.
Out: 28.7

In: Which growth is reported for this compound? CC1(C)NCCC[C@]2(C)[C@H]3CC[C@@H]4[C@H]5[C@H](C(=O)/C=C/c6ccccn6)CC[C@]5(CO)CC[C@@]4(C)[C@]3(C)CC[C@@H]12
Out: 32.7

In: Given the compound Nc1c2c(nc3ccc(Cl)cc13)CC(c1ccc(O)cc1)CC2=O (stereo unspecified) , what is its reported growth?
Out: 48.3

In: Any idea what its growth is? The compound is CCN1CCN(C(=O)[C@]23CCC(C)(C)C[C@@H]2C2=CC[C@@H]4[C@@]5(C)C/C(=C/c6cccnc6)C(=O)C(C)(C)[C@@H]5CC[C@@]4(C)[C@]2(C)CC3)CC1
Out: 31.5

In: // growth lookup, key: Nc1nc2c3ccncc3cc(-c3cccc(Cl)c3)c2c2cnccc12
Out: 29.1

In: I would be grateful if you could share the reported growth for COc1cc(-c2cc(-c3nc4ccccc4[nH]3)[nH]n2)cc(OC)c1OC .
Out: 38.8
